Reference for the values: patent US8912223B2

- Run Description: Bioavailability of CTO given orally as solid in capsule or as liquid in PEG-400; CAI in plasma by HPLC/MS
- Format: in vivo, dogs
- Test Conditions: plasma, po; capsule, single dose 685 mg/kg, male dog
Result Type: half-life (min)

NC(=O)c1nnn(Cc2cc(Cl)c(C(=O)c3ccc(Cl)cc3)c(Cl)c2)c1N	1080

###

- Run Description: Bioavailability of CTO given orally as solid in capsule or as liquid in PEG-400; CAI in plasma by HPLC/MS
- Assay type: in vivo, dogs
- Test Conditions: plasma, po; capsule, single dose 685 mg/kg, female dog
Result Type: half-life (h)

NC(=O)c1nnn(Cc2cc(Cl)c(C(=O)c3ccc(Cl)cc3)c(Cl)c2)c1N [CTO]	22.7
